- Assay info: Cytotoxicity against mouse RAW264.7 cells assessed as cell viability by MTT reduction assay
- Type: cell-based
- Conditions: read-out: Activity
Endpoint label: viability

The recorded viability for entry `CO[C@H]1CC[C@]2(C)[C@H]3C(=O)C[C@@H]4C5=CC(C)(C)CC[C@]5(C)CC[C@@]4(C)[C@]3(C)CC[C@H]2C1(C)C` equals > 95%

Values were extracted from ChEMBL document CHEMBL1159370.
